Kd listing for selected binders.
system-tested: T1, soluble recombinant human IGF-1R hetero-tetramer with C-terminal 10-His tag (R&D Systems 305-GR-50) (human, UniProt P08069 31-736; P08069 741-932)
T1 construct: domain: alpha chain;domain: extracellular domain of the beta chain; Captured on an anti-His antibody chip; also called recombinant soluble human-IGF-1R; h-IGF-1R
method-summary: SPR Biacore X100, His-captured soluble h-IGF-1R (about 600 RU), mean of 4 experiments

// solved cases for Kd follow
c208F2 (antibody, human IgG1, kappa, V domains shown, also called chimeric 208F2; chimeric form of the 208F2 second IGF-1R antibody) VH: QVQLQQSGPELVKPGASVKMSCKASGYTFTSYYIYWVKQRPGQGLEWLGWIWPGDGSTKYNEKFKDKTTLTADKSSNTAYMFLSSLTSEDSAVYFCASPMITPNYAMDYWGQGASVTVSS VL: DIQMTQTTSSLSASLGDRVTISCRASQDISKYLNWYQQQPDGTIKLLIYYTSRLHSGVPSRFSGRGSGTDYSLTISNVEQEDIATYFCQQGSTLPYTFGGGTKLEIKR; ~0.075 nM
hz208F2 H026/L024 (antibody, human IgG1, kappa, V domains shown, also called hz208F2 VH3/VL3; hz208F2 VH3VL3) VH: QVQLVQSGAEVKKPGASVKMSCKASGYTFTSYYIYWVKQAPGQGLEWLGWIWPGDGSTKYNEKFQGRVTLTADKSSNTAYMFLSSLRSEDTAVYFCASPMITPNYAMDYWGQGTLVTVSS VL: DIQMTQSPSSLSASVGDRVTISCRASQDISKYLNWYQQKPGKAPKLLIYYTSRLHSGVPSRFSGRGSGTDYSLTISNLQPEDFATYFCQQGSTLPYTFGGGTKVEIKR; ~0.06 nM
c212A11 (antibody, human IgG1, kappa, V domains shown, also called chimeric 212A11) VH: QVQLQQSGPELVKPGASVKMSCKASGYTFTSYYIHWVKQRPGQGLEWIGWIWPGDGSTKYNEKFKGKTTLTADKSSSTAYMFLSSLTSEDSAVYFCASPMITPNYAMDYWGQGASVTVSS VL: DIQMTQTTSSLSASLGDRVTISCRASQDINKYLNWYQQQPDGTVKLLIYYTSRLHSGVPSRFSGRGSGTDYSLTISNLEQEDIATYFCQQGSTLPYTFGGGTKLEIKR; ~0.03 nM

Prompt: I would be grateful if you could share the reported Kd for c219D6 (antibody, human IgG1, kappa, V domains shown, also called chimeric 219D6) VH: QVQLQQSGPELVKPGDSVKMSCKASGYSFTSYFIHWVKQRPGQGLEWIGWIWPGDGSTKYNEKFKGKTTLTTDKSSSTAYMFLNSLTSEDSAVYFCASPMITPNYAMDYWGQGASVTVSS VL: DIQMTQTTSSLSASLGDRVTISCRASQDISKYLNWYQQQPDGTVKLLIYYTSRLHSGVPSRFSGRGSGTDYSLTISNLEQEDIATYFCQQGSTLPYTFGGGTKLEIKR .
Completion: ~0.03 nM
